# Tested on: Rattus norvegicus
# method: Concentration accumulated in adrenal cortex at 0.5 hr after intravenous administration in rat
# Format: ADME, organism-based
# experimental context: in vivo
metric name: Dose/g (%)

[
  {
    "compound": "CC(C)CCCC(C)C1CCC2C3CC(CI)C4=C(CCC(O)C4)C3CCC12C (stereo not given)",
    "display unit": "%",
    "Dose/g": 17.89
  }
]

P. C[C@H](OC(=O)c1ccccc1I)C1CCC2C3CC=C4CC(O)CCC4(C)C3CCC21C (stereo not given in full)
Q. C[C@@H](NC(=O)c1ccccc1I)C1CCC2C3CC=C4CC(O)CCC4(C)C3CCC21C (stereo not given in full)
R. C[C@H](NC(=O)c1ccccc1I)C1CCC2C3CC=C4CC(O)CCC4(C)C3CCC21C (stereo not given in full)
S. C[C@@H](OC(=O)c1ccccc1I)C1CCC2C3CC=C4CC(O)CCC4(C)C3CCC21C (stereo not given in full)
Incoming: Arrange these 4 compounds in increasing order of Dose/g. // rank by listing labels in the order requested
Outgoing: Q, R, S, P

====

# Test system: Rattus norvegicus
# method: Concentration accumulated in ovary at 24 hr r after intravenous administration in rat
# Format: ADME, organism-based, Female gonad
# experimental context: in vivo
metric name: Dose/g (%)

[
  {
    "molecule": "CC(C)CCCC(C)C1CCC2C3CC(CI)C4=C(CCC(O)C4)C3CCC12C (stereo not given)",
    "Dose/g, %": 33.1
  },
  {
    "molecule": "C[C@@H](NC(=O)c1ccccc1I)C1CCC2C3CC=C4CC(O)CCC4(C)C3CCC21C (stereo not given in full)",
    "Dose/g, %": 0.07
  },
  {
    "molecule": "C[C@H](OC(=O)c1ccccc1I)C1CCC2C3CC=C4CC(O)CCC4(C)C3CCC21C (stereo not given in full)",
    "Dose/g, %": 0.26
  }
]

P. C[C@H](NC(=O)c1ccccc1I)C1CCC2C3CC=C4CC(O)CCC4(C)C3CCC21C (stereo not given in full)
Q. C[C@@H](OC(=O)c1ccccc1I)C1CCC2C3CC=C4CC(O)CCC4(C)C3CCC21C (stereo not given in full)
Incoming: Please tell me which of the two, P or Q , has the higher reported Dose/g value. Let me know the label of the one you choose.
Outgoing: Q

====

# System: Rattus norvegicus
# method: Concentration accumulated in ovary at 0.5 hr after intravenous administration in rat
# Format: ADME, organism-based, Female gonad
# experimental context: in vivo
metric name: Dose/g (%)

Examples with their reported Dose/g follow.
[
  {
    "compound": "C[C@H](NC(=O)c1ccccc1I)C1CCC2C3CC=C4CC(O)CCC4(C)C3CCC21C (stereo not given in full)",
    "metric name": "Dose/g",
    "val": 0.58
  },
  {
    "compound": "C[C@@H](OC(=O)c1ccccc1I)C1CCC2C3CC=C4CC(O)CCC4(C)C3CCC21C (stereo not given in full)",
    "metric name": "Dose/g",
    "val": 1.67
  },
  {
    "compound": "CC(C)CCCC(C)C1CCC2C3CC(CI)C4=C(CCC(O)C4)C3CCC12C (stereo not given)",
    "metric name": "Dose/g",
    "val": 4.1
  }
]

A. C[C@H](OC(=O)c1ccccc1I)C1CCC2C3CC=C4CC(O)CCC4(C)C3CCC21C (stereo not given in full)
B. C[C@@H](NC(=O)c1ccccc1I)C1CCC2C3CC=C4CC(O)CCC4(C)C3CCC21C (stereo not given in full)
Incoming: Hi there, can you help? I need to know whether A or B has lower measured Dose/g. Use the label to indicate which entry you chose.
Outgoing: B
(B: 0.53%, A: 1.49%)

Just for reference, ChEMBL document CHEMBL1124419 is where these values come from.
